- ASSAYED_SYSTEM: Type III pantothenate kinase (Bacillus anthracis, UniProt Q81VX4)
- Sequence (Q81VX4 whole entry): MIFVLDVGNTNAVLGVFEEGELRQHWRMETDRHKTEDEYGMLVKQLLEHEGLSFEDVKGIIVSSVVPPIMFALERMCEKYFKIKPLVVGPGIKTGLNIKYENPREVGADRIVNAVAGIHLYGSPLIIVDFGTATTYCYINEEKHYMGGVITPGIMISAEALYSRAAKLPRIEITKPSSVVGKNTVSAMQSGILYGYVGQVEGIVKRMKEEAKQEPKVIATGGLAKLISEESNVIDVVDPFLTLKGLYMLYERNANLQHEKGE
VALUE_KIND: pKi
Formally, pKi is defined as -log10 of the concentration c, with c in mol/L.

## Input For the compound shown here, Nc1ncnc2c1ncn2[C@@H]1O[C@H](Cn2cc(CO[C@@H]3O[C@H](CO)[C@H](O)[C@H](O)[C@H]3O)nn2)[C@@H](O)[C@H]1O , give the reported pKi.
## Output 3.79
